Sourced from ChEMBL document CHEMBL3272155

experiment: Toxicity in ip dosed COBS-CDI mouse assessed as mortality measured after 3 hrs; assay type: organism-based; conditions: in vivo
Recorded endpoint: LD50 at 3 h (µmol/kg)
Lab book: enter the figure in µmol/kg, no units written.

Solved entries:
1) CC(=O)N1CC2(CCN(Cc3ccccc3)C2)c2ccccc21.O=C(O)C(=O)O (stereo not drawn) : 505
2) CC(=O)N1CCc2ccccc21 : 1400
3) C=CCN1CCC2(C1)CN(C(C)=O)c1ccccc12.O=C(O)C(=O)O (stereo not drawn) : 396
4) CC(=O)N1CC2(CCNC2)c2ccccc21.O=C(O)C(=O)O (stereo not drawn) : 687
5) CC(=O)N1CC2(CCN(C)C2)c2ccccc21 (stereo not drawn) : 94.8

query: Quick check: LD50 at 3 h of CC(=O)N1c2ccccc2C(C)(C)C1C (racemic) ?
result: 2830

query: Entry CC(=O)N1CC2(CCCC2)c2ccccc21 : reported LD50 at 3 h = ?
result: 6880

query: Could you share which LD50 at 3 h value was measured for CN1CCC2(CNc3ccccc32)C1 (stereo not drawn) ?
result: 412

###

biological target: Glycine receptor subunit alpha-1 (Rattus norvegicus); experiment: Displacement of [3H]Strychnine from glycine receptor in rat brain synaptic membranes
Recorded endpoint: IC50 (µM)
Provide the reading as a plain figure in µM.

Answered examples (4):
1. CC(=O)N1CC2(CCN(Cc3ccccc3)C2)c2ccccc21.O=C(O)C(=O)O (stereo not drawn) : 31
2. C=CCN1CCC2(C1)CN(C(C)=O)c1ccccc12.O=C(O)C(=O)O (stereo not drawn) : 67.9
3. CN1CCC2(CNc3ccccc32)C1 (stereo not drawn) : 282
4. CC(=O)N1CC2(CCN(C)C2)c2ccccc21 (stereo not drawn) : 23.6

Below: the item to evaluate.
query: Which IC50 is reported for this compound? CC(=O)N1CC2(CCNC2)c2ccccc21.O=C(O)C(=O)O (stereo not drawn)
result: 295

###

biological target: Glycine receptor subunit alpha-1 (Rattus norvegicus, UniProt P07727); assay: Displacement of [3H]Strychnine from glycine receptor in rat brain synaptic membranes
Sequence (P07727 whole entry): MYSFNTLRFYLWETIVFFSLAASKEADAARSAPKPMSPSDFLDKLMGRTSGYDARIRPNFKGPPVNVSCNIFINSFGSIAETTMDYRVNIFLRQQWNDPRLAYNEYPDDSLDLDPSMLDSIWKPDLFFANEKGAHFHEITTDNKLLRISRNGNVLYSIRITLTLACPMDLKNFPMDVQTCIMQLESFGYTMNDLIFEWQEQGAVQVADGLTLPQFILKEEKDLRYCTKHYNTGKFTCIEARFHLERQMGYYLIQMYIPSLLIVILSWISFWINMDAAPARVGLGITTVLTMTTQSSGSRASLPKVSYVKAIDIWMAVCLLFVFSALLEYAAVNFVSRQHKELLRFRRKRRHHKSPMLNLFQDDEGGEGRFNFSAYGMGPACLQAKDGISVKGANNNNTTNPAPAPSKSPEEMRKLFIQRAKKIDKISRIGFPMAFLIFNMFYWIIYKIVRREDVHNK
pIC50: −log10 of the molar value.
Reported pIC50 values are given for each entry in this list.

Past entries and their recorded results:
1) CC(=O)N1CC2(CCCC2)c2ccccc21 : < 3.00
2) CC(=O)N1c2ccccc2C(C)(C)C1C (racemic) : < 3.00

query: What pIC50 appears in the records for this compound with Glycine receptor subunit alpha-1 (Rattus norvegicus, UniProt P07727)? CC(=O)N1CCc2ccccc21
result: < 3.00
